Entries and their measured fluorescence intensity of reporter gene follow.
Test system: promoter of JWA gene
experiment notes: Luciferase reporter gene under control of JWA gene promoter in HBE cells (high-throughput screening)
Assay type: cell-based, human
condition summary: 0.10 μg/mL, 48 h
The answer should be written as a number, with no unit following it.

Solved entries:
{"cpd smiles": "COc1ccc(OC)c2sc(Nc3nc4c(C(F)(F)F)cccc4s3)nc12", "fluorescence intensity of reporter gene": 16238.00}
{"cpd smiles": "COc1cccc2sc(Nc3nc4c(F)cc(F)cc4s3)nc12", "fluorescence intensity of reporter gene": 13518.67}
{"cpd smiles": "COc1cccc2sc(Nc3nc4c(F)cccc4s3)nc12", "fluorescence intensity of reporter gene": 16200.00}
{"cpd smiles": "COc1cc(OC)c2nc(Nc3nc4c(F)cccc4s3)sc2c1", "fluorescence intensity of reporter gene": 15573.33}
{"cpd smiles": "COc1ccc(OC)c2sc(Nc3nc4c(F)cccc4s3)nc12", "fluorescence intensity of reporter gene": 14254.00}
{"cpd smiles": "COc1cccc2sc(Nc3nc4c(F)ccc(F)c4s3)nc12", "fluorescence intensity of reporter gene": 13553.33}
{"cpd smiles": "COc1cccc2sc(Nc3nc4c(C(F)(F)F)cccc4s3)nc12", "fluorescence intensity of reporter gene": 12346.00}

Now turn to the next molecule.
Q) I have this molecule here, COc1cc(OC)c2nc(Nc3nc4c(C(F)(F)F)cccc4s3)sc2c1 , and I need its recorded fluorescence intensity of reporter gene.
A) 13086.67

Where do the numbers come from? From patent US11427575B2.
